# key: entry, value: cytotoxicity at 70.5 h
Assay Remarks: Human HepG2 cell viability assay in 384 well format
Type: toxicity, cell-based
Set-up: dose 125 nL, time 70.5 hour; concentration not given beside the values
Condition Description: HepG2 cells, read-out: Inhibition
Provide the reading as a plain figure in %.

Below are worked cases with known answers.
COc1ncccc1C1CC(=O)NCc2nc3sccn3c21 (centres undefined) ... -12.8
Cc1nc(C)n(C2CCCN(C(=O)c3cccc4[nH]ncc34)C2)n1 (centres undefined) ... -6.19
COc1ccc(CNC2CCCN(Cc3noc(C)n3)C2)cc1F (centres undefined) ... 23.4
CC(C)NC(=O)N1CCC2(CC(=O)N(c3cccc(C#N)c3)C2)C1 (centres undefined) ... 2.44
O=C1[C@H]2CCCC[C@H]2C(=O)N1c1cnn(Cc2cccc(F)c2)c1 ... 1.76

Provide one value: measured cytotoxicity at 70.5 h of Cc1ccc(N2CCC(NC(C)c3ccc(C)o3)CC2)nc1 (centres undefined)
-4.68

Provide one value: measured cytotoxicity at 70.5 h of `CCCS(=O)(=O)NCCc1ncc(C)s1`
-11.1

Provide one value: measured cytotoxicity at 70.5 h of `CCc1[nH]ncc1C(=O)N1CCCN(Cc2cnn(C(C)C)c2)CC1`
6.52

---

Assay Remarks: Human HepG2 cell viability assay in 384 well format
Assay type: toxicity, cell-based
Parameters: dose 125 nL, time 70.5 hour; concentration not given beside the values
Condition Description: HepG2 cells, read-out: Inhibition
Readout Kind: cytotoxicity at 70.5 h (%)
Provide the reading as a plain figure in %.

COCC(=O)Nc1ccc(Sc2nncn2C)c(Cl)c1 ... 10.4

Provide one value: measured cytotoxicity at 70.5 h of c1ncn(CC2CCCCN2Cc2cn3ccsc3n2)n1 (configuration not stated)
5.43

Provide one value: measured cytotoxicity at 70.5 h of `COC(=O)c1ccc(N2CCN(Cc3csc(C)n3)CC2)nn1`
-14.7

Provide one value: measured cytotoxicity at 70.5 h of `N#Cc1cccc(CN2C[C@@H]3CN(c4ncccn4)C[C@@H]3C2)c1`
-6.36

---

# key: entry, value: cytotoxicity at 70.5 h
Assay Remarks: Human HepG2 cell viability assay in 384 well format
Assay type: toxicity, cell-based
Design: dose 125 nL, time 70.5 hour; concentration not given beside the values
Condition Description: HepG2 cells, read-out: Inhibition
Provide the reading as a plain figure in %.

O=C(NCc1ccc(Cl)s1)c1cc(CN2CCCC(O)C2)on1 (configuration not stated) ... 19.4
CNc1cncc(C2CCCN2C(=O)c2ccc3oc(=O)n(C)c3c2)n1 (configuration not stated) ... 17.9
CC(C)c1nn(C)c(N(C)C)c1CNCc1ccnn1C ... 18

Provide one value: measured cytotoxicity at 70.5 h of `FC(F)(F)Cn1nnnc1SCCN1CCCCC1`
-7.69

Provide one value: measured cytotoxicity at 70.5 h of `CSc1ccc(NC(=O)Cn2cc(N)cn2)cc1`
-6.5

Provide one value: measured cytotoxicity at 70.5 h of `O=C1C[C@H]2CC[C@@H](CN1)N2C1CCOCC1`
-1.49

Provide one value: measured cytotoxicity at 70.5 h of `Cn1nc(COCC2CC2)c2c1CN(C(=O)c1ccno1)CC2`
-9.87

Provide one value: measured cytotoxicity at 70.5 h of `NS(=O)(=O)NCc1cc(-c2ccc(C(F)(F)F)cc2)n[nH]1`
-5.31

---

Assay Remarks: Human HepG2 cell viability assay in 384 well format
Format: toxicity, cell-based
Design: dose 125 nL, time 70.5 hour; concentration not given beside the values
Condition Description: HepG2 cells, read-out: Inhibition
# key: entry, value: cytotoxicity at 70.5 h
Provide the reading as a plain figure in %.

Below are worked cases with known answers.
CCn1nc2c(cc1=O)CN(Cc1nc3ccccc3c(=O)[nH]1)CC2 ... 0.253
CC(Cn1ccnc1)NC(=O)NCCc1ccc2c(c1)OCCO2 (configuration not stated) ... 13.3
CCCc1nc(CN2CCOC(Cn3cncn3)C2)cs1 (configuration not stated) ... 22.5
Cc1ccc(C2CSCCN2CC(=O)N2CCOCC2)cc1 (configuration not stated) ... -5.8
CCOCCCNC(=O)NC(C)c1ccc(-n2cncn2)cc1 (configuration not stated) ... -5.55

Provide one value: measured cytotoxicity at 70.5 h of O=C(c1ccc2c(c1)OCCCO2)N1CCCC(n2ccnc2)C1 (configuration not stated)
-8.38

Provide one value: measured cytotoxicity at 70.5 h of `CC(C)n1cc(CN2CCCN(C(=O)c3cccnc3O)CC2)cn1`
-2.94

Provide one value: measured cytotoxicity at 70.5 h of Cc1nc(N2CCC(C(O)c3nccn3C)CC2)c2sccc2n1 (configuration not stated)
35.8

Provide one value: measured cytotoxicity at 70.5 h of `CN(CC(=O)Nc1cc(C(F)(F)F)c[nH]c1=O)Cc1ccccc1`
-11.2

Provide one value: measured cytotoxicity at 70.5 h of `COc1ccc2cnn(CC(=O)NC3CCCC3)c(=O)c2c1OC`
2.71

Provide one value: measured cytotoxicity at 70.5 h of `O=C(c1ccsc1)N1CCc2nnc(COc3cncnc3)n2CC1`
26.7

Provide one value: measured cytotoxicity at 70.5 h of `COc1ccc(CCN2CCc3c(nc(C4CC4)n3C)C2)cc1`
-2.39

---

Assay Remarks: Human HepG2 cell viability assay in 384 well format
Type: toxicity, cell-based
Set-up: dose 125 nL, time 70.5 hour; concentration not given beside the values
Condition Description: HepG2 cells, read-out: Inhibition
# key: entry, value: cytotoxicity at 70.5 h
Provide the reading as a plain figure in %.

Below are worked cases with known answers.
Cn1ccnc1C1CCN(CCC2CCOC2)CC1 (configuration not stated) ... 14.8
CCCN1CCCn2c(nc(CNC(=O)c3ccsc3)cc2=O)C1 ... -3.68
Cc1ccnn1-c1ccc(C(=O)N2CCCC(n3ccnc3)C2)cc1 (configuration not stated) ... -7.39

Provide one value: measured cytotoxicity at 70.5 h of CCn1cnnc1CNC(=O)NCC(c1cccs1)N1CCCC1 (configuration not stated)
-14

Provide one value: measured cytotoxicity at 70.5 h of `Cc1cccc(C(=O)Nc2c(C(=O)N(C)C)nn(C)c2C)c1`
-3.25

Provide one value: measured cytotoxicity at 70.5 h of `CC(C)N(C)CCNC(=O)N(C)CC1CCOCC1`
-11.2

---

# key: entry, value: cytotoxicity at 70.5 h
Assay Remarks: Human HepG2 cell viability assay in 384 well format
Type: toxicity, cell-based
Parameters: dose 125 nL, time 70.5 hour; concentration not given beside the values
Condition Description: HepG2 cells, read-out: Inhibition
Provide the reading as a plain figure in %.

Below are worked cases with known answers.
CC(C)NC(=O)CNC(=O)C12CCC(=O)N1c1cc(Cl)ccc1S2 (stereo not drawn) ... -0.426
COC(=O)c1cccn1C1CCN(C(=O)c2ccc(C)[nH]c2=O)CC1 ... -5.32
Cc1nn(C)c(Cl)c1CNCCOc1ccc2c(c1)OCO2 ... 7.39
CCN(C)S(=O)(=O)N(CC)Cc1ccc2c(c1)OCO2 ... -17.8
Cn1cc(Br)cc1C(=O)NCC(C)(O)c1ccsc1 (stereo not drawn) ... -9.72

Provide one value: measured cytotoxicity at 70.5 h of CCc1nccn1C1CCCN(C(=O)CCCc2ccccn2)C1 (stereo not drawn)
-2.48

Provide one value: measured cytotoxicity at 70.5 h of COCC(Nc1ncnc2sc(C(=O)O)c(C)c12)c1ccnn1C (stereo not drawn)
0.588

Provide one value: measured cytotoxicity at 70.5 h of Cc1cc(C)c(CNC(=O)C(C)Oc2ccccc2C#N)c(=O)[nH]1 (stereo not drawn)
-13.5

Provide one value: measured cytotoxicity at 70.5 h of `CNC(=O)CN1CC[C@H]2CN(C(=O)c3ccc(C)cc3)C[C@H]2C1`
-4.71

Provide one value: measured cytotoxicity at 70.5 h of `O=C(CCCNC(=O)Nc1ccc(F)cc1)Nc1cn[nH]c1`
-7.73

Provide one value: measured cytotoxicity at 70.5 h of `CCn1nc(C)c2ccn(CC(=O)NCCN3CCCCC3)c(=O)c21`
-5.13

Provide one value: measured cytotoxicity at 70.5 h of `CCS(=O)(=O)N1CCC2(CC1)c1ncc(-c3cccnc3)n1CCN2C`
-5.3

Provide one value: measured cytotoxicity at 70.5 h of `Cc1nn(C)c(N(C)C)c1CNCCCNS(C)(=O)=O`
4.14

Provide one value: measured cytotoxicity at 70.5 h of CC(C)NC(=O)C1CN(C(=O)CCc2ccccc2)CC12CCOCC2 (stereo not drawn)
44.3

Provide one value: measured cytotoxicity at 70.5 h of `CCCn1cc(-c2cc(-c3c[nH]cn3)c(C#N)c(N)n2)c(C)n1`
3.58

---

Assay Remarks: Human HepG2 cell viability assay in 384 well format
Format: toxicity, cell-based
Parameters: dose 125 nL, time 70.5 hour; concentration not given beside the values
Condition Description: HepG2 cells, read-out: Inhibition
# key: entry, value: cytotoxicity at 70.5 h
Respond with the figure and its unit, in that order.

Below are worked cases with known answers.
COCCNC(=O)C1(Cc2ccccc2-c2ccncc2)CCOCC1 ... -9.35%
O=C(c1ccco1)N1CC[C@H]2C[C@@H](c3nccs3)O[C@@H]2C1 ... -1.13%
O=C1CC(c2ccc(C(=O)O)cc2)c2ncn(-c3ccc(Cl)cc3)c2N1 (stereo not given) ... -13%
O=C(CC1CC1)N[C@@H]1CN(Cc2ccccn2)C[C@@H]2CCCO[C@@H]21 ... -0.597%

Provide one value: measured cytotoxicity at 70.5 h of `Cc1cnc(C(=O)N2C[C@H]3CC[C@@H]2CN(c2cnccn2)C3)cn1`
-2.4%
